# Tested on: Bladder cancer cell line UM-UC-3
# assayOverview: Inhibitory activity on cancer cells, CellTiter-Glo viability, UM-UC-3
# Assay type: cell-based
# conditionSummary: Homo sapiens, UMUC3, 72 hours treatment
pIC50: −log10 of the molar value.
I would appreciate it if you labelled entries Met when pIC50 is 5 or higher, otherwise Not met.

Determine whether this compound has pIC50 no lower than 5: O=C1CCN(c2ccnc3c(O)c([N+](=O)[O-])cc(Cl)c23)CC1
Not met

I'd appreciate it if you could say whether CN1CCN(c2ccnc3c(O)c([N+](=O)[O-])cc(Cl)c23)CC1 has pIC50 at least equal to 5.
Not met

Evaluate O=[N+]([O-])c1ccc2c(C3CC3)ccnc2c1O : pIC50 at minimum 5?
Met

Would you say Cl.O=[N+]([O-])c1cc(Cl)c2c(-c3ccccc3)ccnc2c1O [Example 51, hydrochloride] shows pIC50 at minimum 5?
Met

# check: pIC50 of O=[N+]([O-])c1ccc2c(-c3ccccc3)ccnc2c1O is greater than or equal to 5
Met

pIC50 >= 5 for O=[N+]([O-])c1ccc2c(O)ccnc2c1O ?
Not met

Would you say O=[N+]([O-])c1cc(Cl)c2c(N3CCNCC3)ccnc2c1O shows pIC50 at minimum 5?
Not met

Confirm if pIC50 reported for the compound O=[N+]([O-])c1cc(Cl)c2c(N3CCCCC3)ccnc2c1O is 5 or above.
Met

Quick check, pIC50 >= 5? CC1CCCN(c2ccnc3c(O)c([N+](=O)[O-])cc(Cl)c23)C1 (stereo not drawn)
Met

Form field: pIC50 at least 5? Entry: CCOC(=O)C1CCN(c2ccnc3c(O)c([N+](=O)[O-])cc(F)c23)CC1
Met

Can O=[N+]([O-])c1ccc2c(NC3COC3)ccnc2c1O be said to have pIC50 at or above 5?
Not met

Given CC(C)(C)C(=O)N1CCN(c2ccnc3c(O)c([N+](=O)[O-])cc(Cl)c23)CC1 , state whether its pIC50 is at least 5.
Not met

In plain terms: is recorded pIC50 at least 5 for O=[N+]([O-])c1ccc2c(F)ccnc2c1O ?
Met

Decide: is the reported value of pIC50 for CN(C)C(=O)N1CCN(c2ccnc3c(O)c([N+](=O)[O-])cc(Cl)c23)CC1 equal to or greater than 5?
Not met

Identify whether the reported pIC50 of the following compound is 5 or greater: O=[N+]([O-])c1cc(Cl)c2c(N3CCCC3)ccnc2c1O
Not met

Could you tell me if the measured pIC50 of COC(=O)N1CCN(c2ccnc3c(O)c([N+](=O)[O-])cc(Cl)c23)CC1 reaches 5 or more?
Met

Would you say N#Cc1ccnc2c(O)c([N+](=O)[O-])ccc12 shows pIC50 at minimum 5?
Not met

Is the recorded value of pIC50 equal to or greater than 5 for this compound? O=[N+]([O-])c1cc(F)c2c(N3CCC(C(F)(F)F)CC3)ccnc2c1O
Met

Form field: pIC50 at least 5? Entry: O=[N+]([O-])c1cc(F)c2c(OCC3CC3)ccnc2c1O
Met

Hi team, for O=[N+]([O-])c1cc(Cl)c2c(OC3CCCCC3)ccnc2c1O , is the recorded pIC50 at or above 5?
Met

###

For each entry below, report its MIC value.
# Tested on: Staphylococcus aureus (methicillin-resistant and sensitive clinical isolates; ATCC29213)
# assayOverview: MIC by micro broth dilution (CLSI), Staphylococcus aureus
# Format: cell-based
# conditionSummary: Standard strain ATCC29213, read-out: MIC
The reply should be a number in µg/mL, with the unit left off.

Sample O=[N+]([O-])c1c(F)c(Cl)c2cccnc2c1O [Example 110, 5-chloro-6-fluoro-7-nitroquinolin-8-ol] — what was its MIC?
4

What value of MIC has been reported for the following molecule? O=[N+]([O-])c1ccc2c(C3CC3)ccnc2c1O [Example 11, 4-Cyclopropyl-7-nitroquinolin-8-ol]
4

###

Give measured pIC50 for each item. Keep answers brief.
# Test system: Mouse prostate cancer cell line RM1
# assayOverview: Inhibitory activity on cancer cells, CellTiter-Glo viability, RM1
# Type: cell-based
# conditionSummary: 72 hours treatment
Lab note: report pIC50 as minus log10 of the concentration in molar units, number only.

Which pIC50 is reported for this compound? O=C1CCN(c2ccnc3c(O)c([N+](=O)[O-])cc(Cl)c23)CC1
4.16

Entry under review: CN1CCN(c2ccnc3c(O)c([N+](=O)[O-])cc(Cl)c23)CC1 . Reported pIC50?
4.94

Would you mind telling me what pIC50 value was observed for Cl.O=[N+]([O-])c1cc(Cl)c2c(OCc3ccccc3)ccnc2c1O [Example 67, hydrochloride] ?
4.88

Given the entry COc1ccnc2c(O)c([N+](=O)[O-])cc(Cl)c12 , report its measured pIC50.
4.89

Request the reported pIC50 associated with N#Cc1ccnc2c(O)c([N+](=O)[O-])ccc12
4.88

Form field: reported pIC50 of COc1c(C2CC2)cnc2c(O)c([N+](=O)[O-])ccc12
5.69

Entry under review: Cl.O=[N+]([O-])c1cc(Cl)c2c(-c3ccccc3)ccnc2c1O [Example 51, hydrochloride] . Reported pIC50?
5.37

Looking for the measured pIC50 of CC1(C)CCN(c2ccnc3c(O)c([N+](=O)[O-])cc(Cl)c23)CC1 , can you help?
5.69

If you can, please state the reported pIC50 value of CC1CCCN(c2ccnc3c(O)c([N+](=O)[O-])cc(Cl)c23)C1 (centres unmarked) .
5.37

Value lookup for pIC50; key = O=[N+]([O-])c1cc(F)c2c(Cl)ccnc2c1O
5.28

Fill blank: measured pIC50 of the compound COC(=O)N1CCN(c2ccnc3c(O)c([N+](=O)[O-])ccc23)CC1 is ____.
4.90

So what does the record say about pIC50 for O=[N+]([O-])c1cc(Cl)c2c(N3CCC(F)(F)CC3)ccnc2c1O ?
5.54

# pIC50 lookup, item O=[N+]([O-])c1cc(Cl)c2c(N3CCCC3)ccnc2c1O
4.60

What does the data say about its pIC50? Entry: O=[N+]([O-])c1cc(Cl)c2c(C3CC3)ccnc2c1O
5.27

Which pIC50 is listed for O=[N+]([O-])c1cc(Cl)c2c(OC3CCCC3)ccnc2c1O ?
5.84

So what's the measured pIC50 for this one? O=[N+]([O-])c1cc(Cl)c2c(Oc3ccccc3)ccnc2c1O
5.22

###

# System: Prostate cancer cell line LNcaP
# assayOverview: Inhibitory activity on cancer cells, CellTiter-Glo viability, LNcaP
# Format: cell-based
# conditionSummary: Homo sapiens, 72 hours treatment
measuredProperty: IC50 (µM)
Numeric only. Scale: µM

Endpoint output: IC50 of O=[N+]([O-])c1ccc2c(-n3ccnc3)ccnc2c1O [Example 15] . Value?
35.2

Dear colleague, I am looking for the recorded IC50 of the following compound: O=[N+]([O-])c1cc(F)c2c(Cl)ccnc2c1O [Example 68, 4-Chloro-5-fluoro-7-nitroquinolin-8-ol]
5.38

Recorded IC50 for O=[N+]([O-])c1cc(F)c2c(N3CCC(C(F)(F)F)CC3)ccnc2c1O [Example 70] , please?
0.96

Fill in the blank: the reported IC50 of O=[N+]([O-])c1ccc2c(Cl)c(C3CC3)cnc2c1O [Example 74] is ____.
0.53

For the compound shown here, O=[N+]([O-])c1cc(F)c2c(N3CCC(F)(F)CC3)ccnc2c1O [Example 69] , give the reported IC50.
1.33

Item Cl.O=[N+]([O-])c1cc(Cl)c2c(-c3ccccc3)ccnc2c1O [Example 51, hydrochloride] has what recorded IC50?
1.51

Endpoint output: IC50 of CN(C)C(=O)N1CCN(c2ccnc3c(O)c([N+](=O)[O-])ccc23)CC1 [Example 25] . Value?
32.4

Using the record for CN1CCN(c2ccnc3c(O)c([N+](=O)[O-])ccc23)CC1 [Example 18] , report its IC50.
21.2

Look up IC50: CC(=O)N1CCN(c2ccnc3c(O)c([N+](=O)[O-])cc(Cl)c23)CC1 [Example 33]
15

###

# System: Prostate cancer cell line LNcaP
# assayOverview: Inhibitory activity on cancer cells, CellTiter-Glo viability, LNcaP
# Assay type: cell-based
# conditionSummary: Homo sapiens, 72 hours treatment
measuredProperty: pIC50
Scale: pIC50 equals -log10([C]), with [C] in mol/L.

# value lookup — system Prostate cancer cell line LNcaP, readout pIC50, item O=[N+]([O-])c1ccc2c(F)ccnc2c1O
4.92

Give recorded pIC50 with Prostate cancer cell line LNcaP for the following compound: O=[N+]([O-])c1ccc2c(N3CCOCC3)ccnc2c1O
5.06

# query: pIC50 | item O=[N+]([O-])c1ccc2c(Cl)ccnc2c1O | system: Prostate cancer cell line LNcaP
5.39

Return pIC50 measured with Prostate cancer cell line LNcaP given this compound: Cc1cnc2c(O)c([N+](=O)[O-])ccc2c1
5.03

Form field: pIC50 recorded for CCOC(=O)C1CCN(c2ccnc3c(O)c([N+](=O)[O-])cc(Cl)c23)CC1 with Prostate cancer cell line LNcaP (enter value)
6.06

What pIC50 appears in the records for this compound with Prostate cancer cell line LNcaP? Cl.O=[N+]([O-])c1cc(Cl)c2c(C(F)(F)F)ccnc2c1O [Example 73, hydrochloride]
5.64

Give Prostate cancer cell line LNcaP pIC50 for CN(C)C(=O)N1CCN(c2ccnc3c(O)c([N+](=O)[O-])cc(Cl)c23)CC1
4.51

Which pIC50 is reported with Prostate cancer cell line LNcaP for this entry: COC1CCN(c2ccnc3c(O)c([N+](=O)[O-])cc(Cl)c23)CC1 ?
5.73

Tell me reported pIC50 for O=[N+]([O-])c1cc(Cl)c2c(C3CCCCC3)ccnc2c1O , tested with Prostate cancer cell line LNcaP.
6.66

For Prostate cancer cell line LNcaP, provide pIC50 of O=[N+]([O-])c1cc(Cl)c2c(N3CCC4(CC3)CC4)ccnc2c1O please.
5.70

GET /values?readout=pIC50&system=Prostate cancer cell line LNcaP&item= CC(C)(C)C(=O)N1CCN(c2ccnc3c(O)c([N+](=O)[O-])cc(Cl)c23)CC1
5.27
